Tested on: MS2 coat protein
Test Name: apparent KD of MS2 coat protein; designed switch direction (-1 OFF switch, 1 ON switch): -1; higher = weaker reporter binding
Particulars: input ligand: none
Readout: apparent KD of MS2 coat protein (nM)
Express the result in nM but write the number alone.

Task: Bench note: what apparent KD of MS2 coat protein did GCUCUCUCUCUGUCUCUCUACAUGAGGAUCACCCAUGUGUCUCGCUCGCUCUCUCUCUCUCUUUCUCUCUCUCUCUU [Default title] (Eterna round: R97, puzzle: Sensor, turn-off variant 1) show?
Output: 135

Task: Entry under review: UUAAUACAUGUAGGAUAUGCGUGGCGAAGCUAUGCAGAAGGACAUGAGGAUCACCCAUGUUCCAGCGUCCGCGUACGGAUGCAA [JL Eng1 1.21 mod 12] (Eterna round: R96, puzzle: Exclusion NG 1) . Reported apparent KD of MS2 coat protein?
Output: 14.2

Task: # get_value(readout='apparent KD of MS2 coat protein', item= GGAUCGAAAGUGAGGAUAUACCUAUGGAAACAUAGGUAGAAGGCACAUGAGGAUCACCCAUGUUCCUACGGUCC [Mat - Exclusion 4 - Eli Mod - D10] (Eterna round: R97, puzzle: Brourd's mod of Exclusion 4) )
Output: 20

Task: Any idea what apparent KD of MS2 coat protein was measured for AUCAGCUCGUGAGGAUAUACAUGAGGAUCACCCAUGUGAUCAAUAGCAGCUUCGGCUGCAUUAAUGUAGAAGGCACGAGCUGAU [ENG2/5-A3] (Eterna round: R96, puzzle: Exclusion NG 2) ?
Output: 214

Task: Would you kindly share the measured apparent KD of MS2 coat protein for ACAUGAGGAUCACCCAUGUAAACAUAAUGGCUCAUGUAGAGUCAGGAUAUGCGUGGCGAACACGCGCAGAAGGGACAAGACUGG [Deportation 24 - Jieux - Exclusion NG 3] (Eterna round: R96, puzzle: Exclusion NG 3) ?
Output: 31

Task: Need apparent KD of MS2 coat protein of GGCUAGUCAGGAUAUACGAACAUGUCAAAAGACGUGAAGGGACAUGAGGAUCACCCAUGUAGAAGGGACUAGCA [salish99-ex2-12] (Eterna round: R96, puzzle: Exclusion 2) , thanks.
Output: 28

Task: I would be grateful if you could share the reported apparent KD of MS2 coat protein for UUGCCACAUGAGGAUCACCCAUGUGAGGAUAUGGCCCGCCCGGCGUGUGCUGGUUCUGUCAGAAGGCGCGUGGG [salish99_ex1_r4_030] (Eterna round: R97, puzzle: Exclusion 1) .
Output: 33.1

Task: Which apparent KD of MS2 coat protein is reported for this sequence? CAAAAGCUAGGAUAUACACAAAACGCCUGCAUGCAAACAUCACAUGAGGAUCACCCAUGUAGAAGGAGCGGAAA [EX2 A.21] (Eterna round: R97, puzzle: Exclusion 2)
Output: 19.1

Task: Query (sequence): GGAUCUACUGAGGAUAUUAUAUCACCCGACUGAUAAGAAGGCAGUACAUGAGGAUCACCCAUGUGGGUAGCCAU [Polaris8] (Eterna round: R97, puzzle: Exclusion 6) ; field requested: apparent KD of MS2 coat protein
Output: 34.8

Task: Give its apparent KD of MS2 coat protein value. Item: AAAGGAGUAGGAUAUGAGCCCAAAUACAUGAGGAUCACCCAUGUCGGGUUCAUGGAGGGCUUAGAAGGAUUUAAAA [Onreridi] (Eterna round: R97, puzzle: Exclusion 5)
Output: 23.1
